Hi there, I'd appreciate the recorded pIC50 for every entry that follows.
# experimental target: NLRP3 inflammasome (Homo sapiens)
# Construct: host or cells: THP1-Null cells (PMA-differentiated, LPS-primed, nigericin-stimulated)
# assay explanation: Evaluation of NLRP3 inflammasome inhibitory activity (inhibition of IL-1β production in LPS/Nigericin-stimulated THP1-Null cells, AlphaLISA)
# Format: cell-based
# run parameters: IL-1β production in THP1-Null cells; PMA, 1 µg/mL Lipopolysaccharides 3 hours, Nigericin 7.5 µmol/L 1.5 hours
Please report pIC50 as the negative decimal logarithm of the molar concentration, giving only the number.

The measured pIC50 associated with Cc1cc(OC(F)F)cc(C)c1-n1cc2c(=O)[nH]c([C@@H]3C[C@H]3F)nc2n1 (racemic) [Example 171] reads 7.62

Form field pIC50, entry Cc1cc(C2CC2)cc(C)c1-n1cc2c(=O)[nH]c(C(O)C(F)F)nc2n1 (single isomer, unassigned) [Example 169] : 7.59

Summary for this molecule, Cc1cc(C2CC2)cc(C)c1-n1cc2c(=O)[nH]c(C(O)C(F)F)nc2n1 (single isomer, unassigned) [Example 170] : pIC50 is 6.29

Kindly note the recorded pIC50 for Cc1cc(C2CC2)cc(C)c1-n1cc2c(=O)[nH]c(C(C)O)nc2n1 (racemic) [Example 123] , which is 7.64

The measured pIC50 associated with Cc1cc(OC(F)F)cc(C)c1-n1cc2c(=O)[nH]c(C3CC3F)nc2n1 (single isomer, unassigned) reads 7.82

pIC50 reported for this molecule Cc1cc(C(C)(F)F)cc(C)c1-n1cc2c(=O)[nH]c(C3CCOCCO3)nc2n1 (racemic) [Example 168] : 7.13

Kindly note the recorded pIC50 for Cc1cc(OC(F)F)cc(C)c1-n1cc2c(=O)[nH]c(C3CCOCCO3)nc2n1 (single isomer, unassigned) [Example 193] , which is 7.57

Recorded pIC50 (molecule COC1CC(c2nc3nn(-c4c(C)cc(Br)cc4C)cc3c(=O)[nH]2)C1 (single isomer, unassigned) [Example 122] ): 7.21

// Cc1cc(OC(F)F)cc(C)c1-n1cc2c(=O)[nH]c(C3CCOCCO3)nc2n1 (single isomer, unassigned) [Example 194] : pIC50 value = 7.00

Value of pIC50 reported for the molecule Cc1cc(C2CC2)cc(C)c1-n1cc2c(=O)[nH]c(C3CCOC3)nc2n1 (racemic) [Example 29] is 8.05

pIC50 for `Cc1cc(Br)cc(C)c1-n1cc2c(=O)[nH]c([C@@H]3C[C@@H]3F)nc2n1` is 8.10

Entry COC1CC(c2nc3nn(-c4c(C)cc(Br)cc4C)cc3c(=O)[nH]2)C1 (single isomer, unassigned) [Example 121] , pIC50 reported as 7.42

pIC50 recorded for this molecule, Cc1cc(C(C)(F)F)cc(C)c1-n1cc2c(=O)[nH]c(C3CCOCCO3)nc2n1 (single isomer, unassigned) [Example 188] , is 6.72

Noted for Cc1cc(OC(F)F)cc(C)c1-n1cc2c(=O)[nH]c([C@@H]3C[C@H]3F)nc2n1 (single isomer, unassigned) [Example 172] : its pIC50 reads 8.10

====

# experimental target: NLRP3 inflammasome (Homo sapiens, UniProt Q96P20)
# Construct: host or cells: THP1-Null cells (PMA-differentiated, LPS-primed, nigericin-stimulated)
# Sequence (Q96P20 whole entry): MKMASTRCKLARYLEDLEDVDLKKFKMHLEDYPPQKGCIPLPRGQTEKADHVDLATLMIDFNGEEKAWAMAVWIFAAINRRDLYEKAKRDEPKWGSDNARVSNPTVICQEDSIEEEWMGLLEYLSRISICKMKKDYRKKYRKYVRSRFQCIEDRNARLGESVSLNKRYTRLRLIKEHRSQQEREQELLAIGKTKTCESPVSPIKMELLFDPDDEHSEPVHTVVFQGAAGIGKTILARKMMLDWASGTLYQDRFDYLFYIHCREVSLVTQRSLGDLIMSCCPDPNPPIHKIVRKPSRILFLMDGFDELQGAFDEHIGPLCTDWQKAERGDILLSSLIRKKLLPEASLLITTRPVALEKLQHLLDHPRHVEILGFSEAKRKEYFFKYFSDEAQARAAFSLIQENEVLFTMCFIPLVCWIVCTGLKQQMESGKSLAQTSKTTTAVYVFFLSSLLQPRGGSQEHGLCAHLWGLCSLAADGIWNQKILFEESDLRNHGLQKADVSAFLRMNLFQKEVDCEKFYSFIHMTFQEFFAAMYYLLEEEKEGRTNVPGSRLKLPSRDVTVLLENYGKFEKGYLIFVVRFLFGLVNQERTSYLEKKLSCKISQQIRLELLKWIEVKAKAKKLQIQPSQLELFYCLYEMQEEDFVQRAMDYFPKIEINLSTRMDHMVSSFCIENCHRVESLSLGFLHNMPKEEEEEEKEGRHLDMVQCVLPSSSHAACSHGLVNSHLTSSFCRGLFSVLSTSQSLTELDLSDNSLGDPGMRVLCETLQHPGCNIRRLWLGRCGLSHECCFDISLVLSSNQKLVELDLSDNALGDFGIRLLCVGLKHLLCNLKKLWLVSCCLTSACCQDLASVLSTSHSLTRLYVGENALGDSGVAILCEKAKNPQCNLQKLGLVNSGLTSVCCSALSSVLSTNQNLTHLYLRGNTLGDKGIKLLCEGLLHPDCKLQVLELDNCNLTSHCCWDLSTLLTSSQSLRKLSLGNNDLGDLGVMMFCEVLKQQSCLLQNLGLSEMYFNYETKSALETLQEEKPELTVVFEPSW
# assay explanation: Evaluation of NLRP3 inflammasome inhibitory activity (inhibition of IL-1β production in LPS/Nigericin-stimulated THP1-Null cells, AlphaLISA)
# Format: cell-based
# run parameters: IL-1β production in THP1-Null cells; PMA, 1 µg/mL Lipopolysaccharides 3 hours, Nigericin 7.5 µmol/L 1.5 hours; read-out: IC50
Would you mind telling me the reported pIC50 of each entry?
Lab note — pIC50 values are minus log10 of concentrations in M.

pIC50 measured on CCc1nc2nn(-c3ccc(C)cc3C)cc2c(=O)[nH]1 [Example 8] = 6.64

Note to self: pIC50 recorded for Cc1cc(C(C)(F)F)cc(C)c1-n1cc2c(=O)[nH]c(COC(F)F)nc2n1 [Example 202] was 7.40

Given item Cc1cc(Br)cc(C)c1-n1cc2c(=O)[nH]c(C3CCC(F)(F)CO3)nc2n1 (racemic) [Example 191] , the value recorded as its pIC50 is 7.14

Lab book: pIC50 of Cc1cc(C(C)(F)F)cc(C)c1-n1cc2c(=O)[nH]c(C3(F)CCOCC3)nc2n1 [Example 107] noted as 7.82

Lab book: pIC50 of Cc1cc(C2CC2)cc(C)c1-n1cc2c(=O)[nH]c(C3CC3(F)F)nc2n1 (racemic) [Example 114] noted as 7.77

pIC50 for COC(C)c1nc2nn(-c3c(C)cc(C4CC4)cc3C)cc2c(=O)[nH]1 (racemic) [Example 41] is 7.03

According to the records, this compound Cc1cc(C2CC2)cc(C)c1-n1cc2c(=O)[nH]c(C3CCC3)nc2n1 [Example 22] displays pIC50 of 7.92

// pIC50 lookup, compound = Cc1cc(C(C)(F)F)cc(C)c1-n1cc2c(=O)[nH]c(CCO)nc2n1 [Example 208] , result: 7.18

Please fill in: pIC50 reported for Cc1cc(Br)cc(C)c1-n1cc2c(=O)[nH]c(C(O)C3CC3)nc2n1 (racemic) [Example 140] = 7.34

The value of pIC50 measured for the compound CC(=O)c1nc2nn(-c3c(C)cc(C(C)(F)F)cc3C)cc2c(=O)[nH]1 [Example 206] turned out to be 6.44

The recorded pIC50 for entry Cc1cc(C(C)(F)F)cc(C)c1-n1cc2c(=O)[nH]c(C(C)O)nc2n1 (racemic) [Example 144] equals 7.24

Entry Cc1cc(OC(F)F)cc(C)c1-n1cc2c(=O)[nH]c(C(O)C(F)F)nc2n1 (racemic) [Example 167] , pIC50 reported as 6.64

The recorded pIC50 for entry Cc1cc(C2CC2)cc(C)c1-n1cc2c(=O)[nH]c(COCC3CCOCC3)nc2n1 [Example 47] equals 6.74

Measured pIC50, Cc1cc(Br)cc(C)c1-n1cc2c(=O)[nH]c(C3CC3C#N)nc2n1 (racemic) [Example 151] : 7.77

Reported pIC50 ( Cc1cc(Br)cc(C)c1-n1cc2c(=O)[nH]c([C@@H]3CCOCCO3)nc2n1 [Example 186] ) = 7.06

Cc1cc(Br)cc(C)c1-n1cc2c(=O)[nH]c([C@H]3CCOCCO3)nc2n1 [Example 185] yielded pIC50 of 7.64

In plain terms, Cc1ccc(-n2cc3c(=O)[nH]c(C4CCCOC4)nc3n2)c(C)c1 (racemic) [Example 34] has a documented pIC50 of 6.70

Short answer for Cc1cc(C2CC2)cc(C)c1-n1cc2c(=O)[nH]c(CCO)nc2n1 [Example 106] : pIC50 was 7.55

// sample Cc1cc(C2CC2)cc(C)c1-n1cc2c(=O)[nH]c(C3CC(F)(F)CCO3)nc2n1 (racemic) [Example 197] , its pIC50 was 7.44

For reference, reported pIC50 for Cc1cc(Br)cc(C)c1-n1cc2c(=O)[nH]c(CN3CCCC3=O)nc2n1 [Example 66] stands at 6.37

The recorded pIC50 for COCC(O)Cc1nc2nn(-c3c(C)cc(C4CC4)cc3C)cc2c(=O)[nH]1 (racemic) [Example 143] is 7.07

Reported pIC50 of Cc1cc(Br)cc(C)c1-n1cc2c(=O)[nH]c(C3CC3C(N)=O)nc2n1 (racemic) [Example 150] : 7.74

Lab note: measured pIC50 of Cc1cc(C2CC2)cc(C)c1-n1cc2c(=O)[nH]c(C34CC(F)(C3)C4)nc2n1 [Example 49] was 7.62

pIC50 reading for Cc1cc(OC(F)F)cc(C)c1-n1cc2c(=O)[nH]c(C3(F)CCOCC3)nc2n1 [Example 136] : 7.31

Form: compound = CCc1nc2nn(-c3c(C)cc(OC(F)F)cc3C)cc2c(=O)[nH]1 [Example 180] ; pIC50 = 7.70

// Cc1cc(Br)cc(C)c1-n1cc2c(=O)[nH]c(C3CCCCC3)nc2n1 [Example 71] : pIC50 value = 7.96

// recorded pIC50 for CCc1nc2nn(-c3c(C)cc(C4CC4)cc3C)cc2c(=O)[nH]1 [Example 23] : 7.62
